Provenance of the data: patent US20230263822A1

# measurement notes: Hematology assays in cynomolgus monkeys (Example 46)
# Assay type: in vivo
# settings: Day-14
Strand notation (5' to 3'): a small letter for the sugar, then the base; units joined by * are phosphorothioate-linked, units joined directly phosphodiester-linked; [ ] holds rarer units or linkages, { } end groups; capitals alone tell only the bases. e = 2'-O-(2-methoxyethyl) (MOE); [5mC] = 5-methylcytosine; d = 2'-deoxy (DNA)
result type: neutrophils (%)
Numbers only, in %.

substance	u	neutrophils
ISIS 445522: 5-8-5 or 6-8-6 MOE microwalk gapmer (Table 44) (antisense eG*e[5mC]*eA*e[5mC]*eA*dG*dT*dT*dT*d[5mC]*dT*dG*dG*e[5mC]*eA*eG*eG*e[5mC])	%	61
ISIS 449710: 3-8-3, 4-8-4, 2-10-2, 3-10-3 or 4-10-4 MOE microwalk gapmer (Table 46) (antisense e[5mC]*eA*e[5mC]*dA*dG*dT*dT*dT*d[5mC]*dT*dG*dG*d[5mC]*eA*eG*eG)	%	93
ISIS 416850: MOE gapmer, nucleobases 1275 to 1318 of SEQ ID NO: 1 (Table 8) (antisense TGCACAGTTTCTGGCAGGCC; MOE gapmer, wing and gap sizes not given here)	%	88

Would you mind giving neutrophils for every substance in the list below?
1. ISIS 449711: 3-8-3, 4-8-4, 2-10-2, 3-10-3 or 4-10-4 MOE microwalk gapmer (Table 46) (antisense eA*e[5mC]*dA*dG*dT*dT*dT*d[5mC]*dT*dG*dG*d[5mC]*eA*eG)
2. ISIS 449709: 3-8-3, 4-8-4, 2-10-2, 3-10-3 or 4-10-4 MOE microwalk gapmer (Table 46) (antisense eG*e[5mC]*eA*e[5mC]*dA*dG*dT*dT*dT*d[5mC]*dT*dG*dG*d[5mC]*eA*eG*eG*e[5mC])

// result
1: 64; 2: 73

###

# measurement notes: Tolerability in CD1 mice: liver function (Example 43)
# Format: in vivo
# Set-up: unit not given here
# settings: 50 mg/kg s.c. twice per week for 6 weeks, plasma
Strand notation (5' to 3'): a small letter for the sugar, then the base; units joined by * are phosphorothioate-linked, units joined directly phosphodiester-linked; [ ] holds rarer units or linkages, { } end groups; capitals alone tell only the bases. e = 2'-O-(2-methoxyethyl) (MOE); [5mC] = 5-methylcytosine; d = 2'-deoxy (DNA)
result type: Albumin
Numbers only.

Examples from the recorded data:
substance	numeric value
ISIS 449711: 3-8-3, 4-8-4, 2-10-2, 3-10-3 or 4-10-4 MOE microwalk gapmer (Table 46) (antisense eA*e[5mC]*dA*dG*dT*dT*dT*d[5mC]*dT*dG*dG*d[5mC]*eA*eG)	2.8
ISIS 449707: 3-8-3, 4-8-4, 2-10-2, 3-10-3 or 4-10-4 MOE microwalk gapmer (Table 46) (antisense e[5mC]*eA*e[5mC]*eA*dG*dT*dT*dT*d[5mC]*dT*dG*dG*e[5mC]*eA*eG*eG)	2.3
ISIS 449708: 3-8-3, 4-8-4, 2-10-2, 3-10-3 or 4-10-4 MOE microwalk gapmer (Table 46) (antisense eA*e[5mC]*eA*dG*dT*dT*dT*d[5mC]*dT*dG*dG*e[5mC]*eA*eG)	2.8
ISIS 449709: 3-8-3, 4-8-4, 2-10-2, 3-10-3 or 4-10-4 MOE microwalk gapmer (Table 46) (antisense eG*e[5mC]*eA*e[5mC]*dA*dG*dT*dT*dT*d[5mC]*dT*dG*dG*d[5mC]*eA*eG*eG*e[5mC])	2.8

# evaluate next
// query Entry under review: ISIS 449710: 3-8-3, 4-8-4, 2-10-2, 3-10-3 or 4-10-4 MOE microwalk gapmer (Table 46) (antisense e[5mC]*eA*e[5mC]*dA*dG*dT*dT*dT*d[5mC]*dT*dG*dG*d[5mC]*eA*eG*eG) . Reported Albumin?
// result 2.8

###

# Test system: human Factor 11 mRNA
# measurement notes: Antisense inhibition of human Factor 11 in HepG2 cells, lipofectin, 75 nM (Example 1)
# Type: cell-based
# settings: 75 nM antisense oligonucleotide, ~24 h, relative to untreated control cells, gapmers targeted to SEQ ID NO: 1
Strand notation (5' to 3'): a small letter for the sugar, then the base; units joined by * are phosphorothioate-linked, units joined directly phosphodiester-linked; [ ] holds rarer units or linkages, { } end groups; capitals alone tell only the bases. e = 2'-O-(2-methoxyethyl) (MOE); [5mC] = 5-methylcytosine; d = 2'-deoxy (DNA)
Binary classification by % inhibition, with 50% as an inclusive lower bound for Yes; all other cases are No.

For orientation, consider the following solved cases.
substance	measured on	class name
412251 (antisense e[5mC]*eT*eA*eG*e[5mC]*dA*dT*dT*dT*dT*d[5mC]*dT*dT*dA*d[5mC]*eA*eA*eA*e[5mC]*eA) [compound 412251]	human Factor 11 mRNA	Yes
412249 (antisense e[5mC]*eA*eT*eT*e[5mC]*dA*d[5mC]*dA*d[5mC]*dT*dG*d[5mC]*dT*dT*dG*eA*eG*eT*eT*eT) [compound 412249]	human Factor 11 mRNA	Yes
412244 (antisense eG*eA*eA*eG*eG*d[5mC]*dA*dG*dG*d[5mC]*dA*dT*dA*dT*dG*eG*eG*eT*e[5mC]*eG) [compound 412244]	human Factor 11 mRNA	Yes

// query Test whether the substance 413489 (antisense e[5mC]*eA*e[5mC]*eT*eG*dG*dT*dT*dT*d[5mC]*d[5mC]*dA*dA*dT*dG*eA*eT*eG*eG*eA) [compound 413489] records % inhibition of 50% or higher.
// result Yes

// query Test whether the substance 412187 (antisense eT*eT*e[5mC]*eA*eA*dA*d[5mC]*dA*dA*dG*dT*dG*dA*d[5mC]*dA*eT*eA*e[5mC]*eA*e[5mC]) [compound 412187] records % inhibition of 50% or higher.
// result No

// query Test whether the substance 412222 (antisense eA*eA*e[5mC]*eA*eA*dT*dA*dT*d[5mC]*d[5mC]*dA*dG*dT*dT*d[5mC]*eT*eT*e[5mC]*eT*e[5mC]) [compound 412222] records % inhibition of 50% or higher.
// result No

###

Give measured percent inhibition of Factor 11 at 2.2 μM for each item. Keep answers brief.
# Tested on: human Factor 11 mRNA
# measurement notes: Dose-dependent inhibition of human Factor 11 in HepG2 cells, electroporation 0.7-20 uM (Example 4)
# Type: cell-based
# settings: 2.2 μM, relative to untreated control cells
Strand notation (5' to 3'): a small letter for the sugar, then the base; units joined by * are phosphorothioate-linked, units joined directly phosphodiester-linked; [ ] holds rarer units or linkages, { } end groups; capitals alone tell only the bases. e = 2'-O-(2-methoxyethyl) (MOE); [5mC] = 5-methylcytosine; d = 2'-deoxy (DNA)
One number for each entry, in %.

substance	numeric value
416826 (antisense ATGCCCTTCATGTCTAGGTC; 5-10-5 gapmer, further chemistry not given here) [compound 416826]	47
416858 (antisense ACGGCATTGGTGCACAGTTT; 5-10-5 gapmer, further chemistry not given here) [compound 416858]	20

Would you mind giving percent inhibition of Factor 11 at 2.2 μM for every substance in the list below?
1. 413476 (antisense eT*eT*eG*eA*eG*dA*dT*dT*d[5mC]*dT*dT*dT*dG*dG*dG*e[5mC]*e[5mC]*eA*eT*eT) [compound 413476]
2. 417003 (antisense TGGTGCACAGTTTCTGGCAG; 2-13-5 gapmer chemistry, further chemistry not given here) [compound 417003]
3. 416922 (antisense eG*e[5mC]*eA*d[5mC]*dA*dG*dT*dT*dT*d[5mC]*dT*dG*dG*d[5mC]*dA*dG*dG*e[5mC]*e[5mC]*eT) [compound 416922]
4. 416925 (antisense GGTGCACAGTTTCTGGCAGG; 3-14-3 gapmer chemistry, further chemistry not given here) [compound 416925]

// result
1. 69
2. 34
3. 51
4. 40

###

# Test system: blood coagulation
# measurement notes: PT and aPTT assay in cynomolgus monkeys (Example 46)
# Assay type: in vivo
# settings: Day 38; platelet poor plasma; relative to PBS group
Strand notation (5' to 3'): a small letter for the sugar, then the base; units joined by * are phosphorothioate-linked, units joined directly phosphodiester-linked; [ ] holds rarer units or linkages, { } end groups; capitals alone tell only the bases. e = 2'-O-(2-methoxyethyl) (MOE); [5mC] = 5-methylcytosine; d = 2'-deoxy (DNA)
result type: PT ratio (INR)
One number for each entry.

substance	result type	numeric value
ISIS 445522: 5-8-5 or 6-8-6 MOE microwalk gapmer (Table 44) (antisense eG*e[5mC]*eA*e[5mC]*eA*dG*dT*dT*dT*d[5mC]*dT*dG*dG*e[5mC]*eA*eG*eG*e[5mC])	PT ratio (INR)	0.97
ISIS 449709: 3-8-3, 4-8-4, 2-10-2, 3-10-3 or 4-10-4 MOE microwalk gapmer (Table 46) (antisense eG*e[5mC]*eA*e[5mC]*dA*dG*dT*dT*dT*d[5mC]*dT*dG*dG*d[5mC]*eA*eG*eG*e[5mC])	PT ratio (INR)	0.97
ISIS 449710: 3-8-3, 4-8-4, 2-10-2, 3-10-3 or 4-10-4 MOE microwalk gapmer (Table 46) (antisense e[5mC]*eA*e[5mC]*dA*dG*dT*dT*dT*d[5mC]*dT*dG*dG*d[5mC]*eA*eG*eG)	PT ratio (INR)	0.99

# evaluate next
// query Entry under review: ISIS 416858: MOE gapmer, nucleobases 1275 to 1318 of SEQ ID NO: 1 (Table 8) (antisense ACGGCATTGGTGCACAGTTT; MOE gapmer, wing and gap sizes not given here) . Reported PT ratio (INR)?
// result 0.97
